Biological target: adenosine kinase of T. b. rhodesiense (TbrAK) (Trypanosoma brucei rhodesiense)
Sequence (Q584S0 1-345): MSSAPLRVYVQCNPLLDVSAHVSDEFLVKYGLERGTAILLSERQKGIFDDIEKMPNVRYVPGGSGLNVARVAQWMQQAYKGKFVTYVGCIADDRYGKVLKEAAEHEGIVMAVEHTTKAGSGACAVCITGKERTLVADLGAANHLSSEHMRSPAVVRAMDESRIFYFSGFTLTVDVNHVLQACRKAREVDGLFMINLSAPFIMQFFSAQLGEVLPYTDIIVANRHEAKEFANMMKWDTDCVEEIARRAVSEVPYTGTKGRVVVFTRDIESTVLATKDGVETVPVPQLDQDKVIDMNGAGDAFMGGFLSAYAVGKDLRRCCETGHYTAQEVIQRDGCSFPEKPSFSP
Assay: Isothermal titration calorimetry (ITC) with TbrAK
Assay type: binding
Settings: two-sites non-interacting binding model; read-out: KD, high affinity binding site
attributeMeasured: pKd
Remember the convention: pKd equals -log10 of concentration in molar.

Lab note: c1ccc(Oc2ccc(-c3cc(N4CCOCC4)[nH]n3)cc2)cc1 [compound 1] gave pKd of 7.12

====

Target: adenosine kinase of T. b. rhodesiense (TbrAK) (Trypanosoma brucei rhodesiense, UniProt Q584S0)
Assay: HPLC activity assay for TbrAK
Assay type: biochemical
Details: 50 µM compound, 0.7 µM TbrAK, 10 min, 37°C, ADP/ATP ratio; read-out: TbrAK activity in presence of compound (% of activity without compound)
Experimental: TbrAK catalyzes the ATP-dependent phosphorylation of the 5′-hydroxyl moiety of adenosine to form AMP and ADP. The activity assay was based on HPLC separation of substrate and products (adenosine, AMP, ADP, and ATP). […] The separation was performed isocratically at a flow-rate of 1.5 ml/min and monitored at 254 nm. […] 50 µl of the sample volume were injected for analysis and the resulting ADP/ATP ratios were calculated and used as a measure of activity. […]
Below: a set of entries, each annotated with reported activity at 50 µM.
Could you give the number and then its unit, please?

Lab note: c1ccc(Oc2ccc(-c3cc(N4CCNCC4)[nH]n3)cc2)cc1 [compound 4] gave activity at 50 µM of 109%

Lab note: Nc1ccc(-n2nc(-c3ccc(Oc4ccccc4)cc3)cc2N2CCOCC2)cc1 [compound 3] gave activity at 50 µM of 110%

Lab note: c1ccc(Oc2ccc(-c3cc(N4CCOCC4)[nH]n3)cc2)cc1 [compound 1] gave activity at 50 µM of 245%

Lab note: c1ccc(Oc2ccc(-c3cc[nH]n3)cc2)cc1 [compound 5, 3-(4-phenoxyphenyl)-1H-pyrazole] gave activity at 50 µM of 102%

Lab note: Nc1ccc(Oc2ccc(-c3cc(N4CCOCC4)[nH]n3)cc2)cc1 [compound 2] gave activity at 50 µM of 174%

====

target: UniProt Q584S0; assay: Thermal stability assay (CD spectroscopy) regarding TbrAK; format: binding; details: read-out: ΔTm of TbrAK
Below: a set of entries, each annotated with reported ΔTm at 50 µM.
Value expressed in °C; do not type the unit.

>  <entrySmiles>
c1ccc(Oc2ccc(-c3cc[nH]n3)cc2)cc1

>  <ΔTm at 50 µM (°C)>
0.3

$$$$
>  <entrySmiles>
Nc1ccc(Oc2ccc(-c3cc(N4CCOCC4)[nH]n3)cc2)cc1

>  <ΔTm at 50 µM (°C)>
2.8

$$$$
>  <entrySmiles>
c1ccc(Oc2ccc(-c3cc(N4CCOCC4)[nH]n3)cc2)cc1

>  <ΔTm at 50 µM (°C)>
4.8

$$$$
>  <entrySmiles>
Nc1ccc(-n2nc(-c3ccc(Oc4ccccc4)cc3)cc2N2CCOCC2)cc1

>  <ΔTm at 50 µM (°C)>
-0.3

$$$$

Item `c1ccc(Oc2ccc(-c3cc(N4CCNCC4)[nH]n3)cc2)cc1` was tested on UniProt Q584S0; the reported ΔTm at 50 µM is 0.1

====

Target: adenosine kinase of T. b. rhodesiense (TbrAK) (Trypanosoma brucei rhodesiense, UniProt Q584S0)
Sequence (Q584S0 1-345): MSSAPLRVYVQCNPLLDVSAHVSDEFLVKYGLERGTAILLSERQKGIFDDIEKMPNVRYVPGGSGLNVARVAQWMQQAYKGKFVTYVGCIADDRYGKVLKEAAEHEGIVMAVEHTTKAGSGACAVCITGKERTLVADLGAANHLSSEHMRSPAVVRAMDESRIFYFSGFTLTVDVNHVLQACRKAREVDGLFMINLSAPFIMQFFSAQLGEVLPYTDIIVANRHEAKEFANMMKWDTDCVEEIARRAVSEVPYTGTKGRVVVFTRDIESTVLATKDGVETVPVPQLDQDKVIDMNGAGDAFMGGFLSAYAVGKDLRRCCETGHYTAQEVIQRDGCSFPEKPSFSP
Assay: HPLC activity assay for TbrAK
Format: biochemical
Settings: 0.5 mM ATP, 0.5 mM adenosine, 0.7 µM TbrAK; read-out: EC50 of TbrAK activation (HPLC assay)
Below: a set of entries, each annotated with reported EC50.

>  <entrySmiles>
c1ccc(Oc2ccc(-c3cc(N4CCOCC4)[nH]n3)cc2)cc1

>  <EC50>
38.9 µM

$$$$

We next turn to a different compound, shown below.
Lab note: `c1ccc(Oc2ccc(-c3cc(N4CCNCC4)[nH]n3)cc2)cc1` gave EC50 of > 750 µM

====

system: bloodstream-form T. b. brucei TbAK RNAi cells; assay: Drug sensitivity test (Alamar blue) on TbAK RNAi knock-down mutant; format: cell-based; conditions: Trypanosoma brucei, read-out: IC50 on TbAK RNAi cells, induced
attributeMeasured: IC50 (nM)
Value expressed in nM; do not type the unit.

Lab note: `c1ccc(Oc2ccc(-c3cc(N4CCOCC4)[nH]n3)cc2)cc1` gave IC50 of 271

====

molecular target: UniProt:Q584S0
attributeMeasured: pKi
Remember the convention: pKi equals -log10 of concentration in molar.

Item `Nc1ncnc2c1ncn2[C@@H]1O[C@H](CO)[C@@H](O)[C@H]1O` was tested on UniProt:Q584S0; the reported pKi is 5.21

====

target: adenosine kinase of T. b. rhodesiense (TbrAK) (Trypanosoma brucei rhodesiense); experiment: HPLC activity assay for TbrAK; format: biochemical; conditions: range 1–750 µM, up to solubility limit
attributeMeasured: concentration dependence of the activation effect

Recorded results for 4 compounds are shown here.
>  <entrySmiles>
c1ccc(Oc2ccc(-c3cc[nH]n3)cc2)cc1

>  <assayResult>
did not activate TbrAK

$$$$
>  <entrySmiles>
Nc1ccc(-n2nc(-c3ccc(Oc4ccccc4)cc3)cc2N2CCOCC2)cc1

>  <assayResult>
did not activate TbrAK

$$$$
>  <entrySmiles>
Nc1ccc(Oc2ccc(-c3cc(N4CCOCC4)[nH]n3)cc2)cc1

>  <assayResult>
concentration dependent

$$$$
>  <entrySmiles>
c1ccc(Oc2ccc(-c3cc(N4CCOCC4)[nH]n3)cc2)cc1

>  <assayResult>
concentration dependent

$$$$

We next turn to a different compound, shown below.
Lab note: `c1ccc(Oc2ccc(-c3cc(N4CCNCC4)[nH]n3)cc2)cc1` gave concentration dependence of the activation effect of concentration dependent

====

assay: Solubility limit in the assay mixture; type: physicochemical; conditions: HPLC activity assay mixture (buffer E1 with 1% DMSO), 37 °C, pH 7, aqueous buffer, kinetic from dmso stock, read-out: solubility limiting concentration
attributeMeasured: solubility (µM)
Value expressed in µM; do not type the unit.

Lab note: `c1ccc(Oc2ccc(-c3cc(N4CCNCC4)[nH]n3)cc2)cc1` gave solubility of 750

====

Below: a set of entries, each annotated with reported Tm of TbrGAPDH.
molecular target: glycosomal T. b. rhodesiense glyceraldehyde-3-phosphate dehydrogenase (TbrGAPDH) (Trypanosoma brucei brucei, UniProt P22512); construct: made in house; host or cells: E. coli BL21(DE3), pET28a; test: Thermal stability assay (CD spectroscopy) regarding TbrGAPDH; assay type: binding; conditions: compound at 50 µM
Sequence (P22512 whole entry): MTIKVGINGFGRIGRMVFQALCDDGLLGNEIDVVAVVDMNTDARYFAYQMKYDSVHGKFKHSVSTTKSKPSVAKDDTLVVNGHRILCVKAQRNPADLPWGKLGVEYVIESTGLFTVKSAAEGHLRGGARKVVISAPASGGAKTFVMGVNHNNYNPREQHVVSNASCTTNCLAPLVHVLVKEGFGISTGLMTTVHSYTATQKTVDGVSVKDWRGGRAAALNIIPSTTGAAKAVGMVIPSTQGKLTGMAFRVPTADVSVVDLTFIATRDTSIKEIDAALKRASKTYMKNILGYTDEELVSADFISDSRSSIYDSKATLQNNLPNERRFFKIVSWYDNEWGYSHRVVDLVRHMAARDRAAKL
Could you give the number and then its unit, please?

>  <compound>
Nc1ccc(-n2nc(-c3ccc(Oc4ccccc4)cc3)cc2N2CCOCC2)cc1 [compound 3]

>  <attributeMeasured>
Tm of TbrGAPDH

>  <assayResult>
45.5 ± 0.6 °C

$$$$
>  <compound>
c1ccc(Oc2ccc(-c3cc(N4CCOCC4)[nH]n3)cc2)cc1 [compound 1]

>  <attributeMeasured>
Tm of TbrGAPDH

>  <assayResult>
46.8 ± 0.1 °C

$$$$
>  <compound>
Nc1ccc(Oc2ccc(-c3cc(N4CCOCC4)[nH]n3)cc2)cc1 [compound 2]

>  <attributeMeasured>
Tm of TbrGAPDH

>  <assayResult>
47.0 ± 0.4 °C

$$$$
>  <compound>
c1ccc(Oc2ccc(-c3cc[nH]n3)cc2)cc1 [compound 5, 3-(4-phenoxyphenyl)-1H-pyrazole]

>  <attributeMeasured>
Tm of TbrGAPDH

>  <assayResult>
46.7 ± 0.2 °C

$$$$

We next turn to a different compound, shown below.
Lab note: c1ccc(Oc2ccc(-c3cc(N4CCNCC4)[nH]n3)cc2)cc1 [compound 4] gave Tm of TbrGAPDH of 47.0 ± 0.1 °C
